Test system: Calu-3
Method Notes: cell viability relative to DMSO; higher = less toxic
Recorded Conditions: 72 h; 1000 nM
Assay Metric: cell viability (%)
Just the number please, in %, no unit attached.

| Compound | Study System | Assay Metric | Number |
| --- | --- | --- | --- |
| N[C@@H](CSC(c1ccccc1)(c1ccccc1)c1ccccc1)C(=O)O [S-trityl-L-cysteine] | Calu-3 | cell viability | 92.5 |
| CC(C)[C@@H](CN1CC[C@@](C)(c2cccc(O)c2)[C@@H](C)C1)NC(=O)[C@H]1Cc2ccc(O)cc2CN1 [JDTic] | Calu-3 | cell viability | 109 |
| CC(=O)Oc1ccccc1C(=O)Oc1ccccc1C(=O)O [acetylsalicylsalicylic-acid] | Calu-3 | cell viability | 97 |
| CC[N+](C)(CC)CCOC(=O)C(O)(c1ccccc1)C1CCCCC1 (centres undefined) [oxyphenonium] | Calu-3 | cell viability | 99.2 |
| CCCC(=O)O [sodium-butyrate] | Calu-3 | cell viability | 97.7 |

What does the record list as cell viability for NC(=O)c1nc(F)cnc1O [Favipiravir] ? 94.6

Please do the same for CC(C)C[C@H](NC(=O)CNC(=O)c1cc(Cl)ccc1Cl)B1OC(=O)C(CC(=O)O)(CC(=O)O)O1 [ixazomib-citrate] as well. 5.6

Please do the same for O=C(NOCCO)c1ccc2cncn2c1Nc1ccc(I)cc1F [GDC-0623] as well. 36.4

Please do the same for COc1[nH]c2ccc(F)cc2c1C(=O)OCC1CCN(CCNS(C)(=O)=O)CC1 as well. 105

Please do the same for COc1ccccc1N1CCN(CCCNc2cc(=O)n(C)c(=O)n2C)CC1 [urapidil] as well. 102

Please do the same for C[C@@H]1C[C@H]2[C@@H]3C[C@H](F)C4=CC(=O)C=C[C@]4(C)[C@@]3(F)[C@@H](O)C[C@]2(C)[C@@]1(O)C(=O)COC(=O)C(C)(C)C [flumethasone-pivalate] as well. 94.3

Please do the same for CC(C)C[C@H](NC(=O)CNC(=O)c1cc(Cl)ccc1Cl)B1OC(=O)C(CC(=O)O)(CC(=O)O)O1 [MLN9708] as well. 6.6

###

Tested on: Caco-2
Method Notes: cell viability relative to DMSO; higher = less toxic
Recorded Conditions: 72 h; 1000 nM
Assay Metric: cell viability (%)
Just the number please, in %, no unit attached.

Worked examples, 4 molecules total:
| Molecule | Value Unit | Number |
| --- | --- | --- |
| CC(=O)NCCNc1cc(Cl)nn2c(-c3cccc(S(=O)(=O)N(C)C)c3)c(C)nc12 | % | 93.1 |
| CC(=O)Oc1cccc(C(=O)O)c1OC(C)=O | % | 97 |
| NC(=O)c1ncn([C@@H]2O[C@H](CO)[C@@H](O)[C@H]2O)n1 | % | 113 |
| Cc1c(Cl)cccc1S(=O)(=O)Nc1nc(NCCc2ccccc2)nc2c1CN(Cc1ccccc1)CC2 | % | 102 |

Okay, next one:
What does the record list as cell viability for C=C1C(=O)O[C@@H]2/C=C(\C)CC/C=C(\C)CC[C@@H]12 [costunolide] ? 86.6

###

System: HepG2
Method Notes: cell viability relative to DMSO; higher = less toxic
Recorded Conditions: 72 h; 1 nM
Assay Metric: cell viability (%)
Just the number please, in %, no unit attached.

Worked examples, 3 molecules total:
| Chemical Smiles | Study System | Assay Metric | Value Unit | Number |
| --- | --- | --- | --- | --- |
| COc1ccc2cc3[n+](cc2c1OC)CCc1cc2c(cc1-3)OCO2 | HepG2 | cell viability | % | 99.8 |
| COC(=O)CC[C@@H]1N=C(c2ccccn2)c2cc(Br)ccc2-n2c(C)cnc21 | HepG2 | cell viability | % | 97.1 |
| CC(C)CNc1ccnc(NCc2csc(-c3ccccc3)n2)n1 | HepG2 | cell viability | % | 104 |

What does the record list as cell viability for CS(=O)(=O)n1cc2c(n1)CN([C@H]1CO[C@H](c3cc(F)ccc3F)[C@@H](N)C1)C2 ? 103

Please do the same for Cc1ccccc1N1CCN(CCc2nnc3n2CCCC3)CC1 as well. 99.8

Please do the same for C[C@H](NC(=O)/C(C#N)=C/c1ccc(O)c(O)c1)c1ccccc1 as well. 109

Please do the same for O=C(O)CCCCC(=O)O as well. 104

Please do the same for CC(C)C[C@H](NC(=O)CNC(=O)c1cc(Cl)ccc1Cl)B1OC(=O)C(CC(=O)O)(CC(=O)O)O1 as well. 89.6
